- system.tested: VMAT2 (Rattus norvegicus, UniProt Q01827)
- Construct: conducted using isolated synaptic vesicle preparations; from tissue; host or cells: rat striatum, isolated synaptic vesicles
- Sequence (Q01827 whole entry): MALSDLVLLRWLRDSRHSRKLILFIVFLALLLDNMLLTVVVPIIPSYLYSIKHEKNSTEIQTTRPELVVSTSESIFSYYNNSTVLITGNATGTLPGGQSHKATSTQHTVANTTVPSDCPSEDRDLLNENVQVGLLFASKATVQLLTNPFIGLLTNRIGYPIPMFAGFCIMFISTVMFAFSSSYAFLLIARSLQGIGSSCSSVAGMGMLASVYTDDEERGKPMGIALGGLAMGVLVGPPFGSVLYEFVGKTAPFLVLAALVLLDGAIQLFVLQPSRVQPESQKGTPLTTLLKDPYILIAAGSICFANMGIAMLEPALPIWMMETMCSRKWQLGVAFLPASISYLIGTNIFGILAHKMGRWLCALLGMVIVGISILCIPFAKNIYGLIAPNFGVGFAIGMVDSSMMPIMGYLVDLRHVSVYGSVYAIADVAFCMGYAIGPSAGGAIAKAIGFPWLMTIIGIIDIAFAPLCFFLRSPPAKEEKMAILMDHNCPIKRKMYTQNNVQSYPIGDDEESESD
- method.notes: [3H]Dihydrotetrabenazine ([3H]DTBZ) binding assay, vesicular preparation
- condition.details: rat brain synaptic vesicles, 3 nM [3H]DTBZ; read-out: Inhibition of [3H]DTBZ binding (Ki) VMAT2
pKi: −log10 of the molar value.
Answer 0 if pKi is under 6, and 1 if it is 6 or more.

Solved entries:
COc1ccc(CCC2CCN(CCc3cccc(OC)c3)CC2)cc1 = 1
COc1ccc(CCC2CCN(CCc3ccccc3)CC2)c(F)c1 = 1
Clc1ccccc1CCN1CCN(CCc2ccccc2)CC1 = 0
Fc1ccc(CN2CCC(CCc3ccccc3)CC2)cc1 = 0

# next compound below
Query string: Is the recorded value of pKi equal to or greater than 6 for this compound? `COc1ccc(CCN2CCN(CCc3ccc(OC)cc3)CC2)cc1`
Result string: 0

* * *

- system.tested: VMAT2 (Rattus norvegicus, UniProt Q01827)
- Construct: conducted using isolated synaptic vesicle preparations; from tissue; host or cells: rat striatum, isolated synaptic vesicles
- method.notes: [3H]Dihydrotetrabenazine ([3H]DTBZ) binding assay, vesicular preparation
- condition.details: rat brain synaptic vesicles, 3 nM [3H]DTBZ; read-out: Inhibition of [3H]DTBZ binding (Ki) VMAT2
property.measured: log10(Ki) (log10 of the value in nM)
Lab note - Ki converted to log10 from values in nM.

Consider the worked cases shown below.
COc1ccccc1CCC1CCN(CCc2ccc(F)cc2)CC1 = 2.60
COc1ccc(CCC2CCN(CCc3ccc(OC)cc3)CC2)cc1 = 3.39

List reported log10(Ki) for each of these compounds:
1. COc1ccccc1CN1CCC(CCc2ccccc2)CC1
2. COc1ccc(CCN2CCC(Cc3ccccc3)CC2)cc1
3. Fc1ccc(CCN2CCN(CCc3ccccc3)CC2)cc1
4. COc1ccc(CCC2CCN(CCc3ccccc3Cl)CC2)c(F)c1
5. COc1ccccc1CCC1CCN(CCc2ccccc2OC)CC1

Result string:
[3.97, 3.29, 3.59, 2.36, 2.28]

List reported log10(Ki) for each of these compounds:
1. Fc1ccc(CCN2CCCN(CCc3ccc(F)cc3)CC2)cc1
2. Fc1ccc(CCN2CCC(CCc3cc(F)cc(F)c3)CC2)cc1
3. COc1ccccc1CCC1CCN(CCc2ccccc2)CC1
4. Clc1ccccc1CCN1CCCN(CCc2ccccc2Cl)CC1
5. COc1ccc(CCC2CCN(CCc3ccc(F)cc3)CC2)c(F)c1

Result string:
1. 3.70
2. 3.16
3. 2.84
4. 2.97
5. 2.78

List reported log10(Ki) for each of these compounds:
1. COc1ccc(CCN2CCCN(CCc3ccc(OC)cc3)CC2)cc1
2. COc1cccc(CCN2CCC(CCc3ccccc3)CC2)c1
3. Fc1ccc(CCN2CCC(CCc3ccccc3)CC2)cc1
4. COc1cccc(CCC2CCN(CCc3ccc(F)cc3)CC2)c1
5. Clc1ccccc1CN1CCC(CCc2ccccc2)CC1
6. COc1ccccc1CCN1CCCN(CCc2ccccc2OC)CC1

Result string:
3.46
2.42
3.26
2.98
4.65
3.31

List reported log10(Ki) for each of these compounds:
1. COc1cccc(CCN2CCC(CCc3ccc(OC)cc3F)CC2)c1
2. COc1ccc(CCN2CCC(CCc3ccc(F)cc3F)CC2)cc1
3. COc1cccc(CCN2CCCN(CCc3cccc(OC)c3)CC2)c1

Result string:
1. 2.28
2. 3.11
3. 3.35

List reported log10(Ki) for each of these compounds:
1. COc1ccccc1CCN1CCC(CCc2ccccc2)CC1
2. Fc1ccc(CCN2CCN(CCc3ccc(F)cc3)CC2)cc1
3. COc1ccc(CCN2CCC(CCc3cccc(OC)c3)CC2)cc1
4. COc1ccc(CCN2CCC(CCc3ccccc3)CC2)cc1
5. COc1ccccc1CCN1CCC(CCc2ccc(F)cc2F)CC1
6. COc1ccccc1CCC1CCN(CCc2ccccc2Cl)CC1

Result string:
1. 2.41
2. 3.57
3. 2.65
4. 3.21
5. 2.54
6. 2.28

List reported log10(Ki) for each of these compounds:
1. COc1ccc(CCC2CCN(CCc3ccccc3Cl)CC2)cc1
2. COc1cccc(CCC2CCN(CCc3ccccc3Cl)CC2)c1
3. COc1ccc(CN2CCC(CCc3ccccc3)CC2)cc1

Result string:
1: 2.36; 2: 2.66; 3: 3.79

List reported log10(Ki) for each of these compounds:
1. COc1cccc(CCC2CCN(CCc3ccccc3OC)CC2)c1
2. COc1ccc(CCN2CCC(CCc3cc(F)cc(F)c3)CC2)cc1
3. COc1ccccc1CCN1CCC(CCc2cc(F)cc(F)c2)CC1
4. COc1ccc(CCC2CCN(CCc3ccccc3)CC2)cc1
5. Fc1cc(F)cc(CCC2CCN(CCc3ccccc3Cl)CC2)c1
6. COc1cccc(CCN2CCC(Cc3ccccc3)CC2)c1

Result string:
[2.51, 3.31, 2.61, 2.71, 2.82, 3.18]

List reported log10(Ki) for each of these compounds:
1. c1ccc(CCC2CCN(Cc3ccccc3)CC2)cc1
2. COc1cccc(CCC2CCN(CCc3ccccc3)CC2)c1

Result string:
1. 4.34
2. 2.51

Query string: Please provide the recorded log10(Ki) for `Clc1ccccc1CCN1CCC(CCc2ccccc2)CC1` , tested on VMAT2 (Rattus norvegicus, UniProt Q01827).
Result string: 2.58

* * *

- system.tested: VMAT2 (Rattus norvegicus)
- Construct: conducted using isolated synaptic vesicle preparations; from tissue; host or cells: rat striatum, isolated synaptic vesicles
- method.notes: [3H]Dihydrotetrabenazine ([3H]DTBZ) binding assay, vesicular preparation
- condition.details: rat brain synaptic vesicles, 3 nM [3H]DTBZ; read-out: Inhibition of [3H]DTBZ binding (Ki) VMAT2
pKi: −log10 of the molar value.
Answer Not satisfied if pKi is under 6, and Satisfied if it is 6 or more.

Query string: Is the recorded value of pKi equal to or greater than 6 for this compound? `COc1ccc(CCC2CCN(CCc3ccccc3OC)CC2)c(F)c1`
Result string: Satisfied

Query string: Is the recorded value of pKi equal to or greater than 6 for this compound? `c1ccc(CCN2CCN(CCc3ccccc3)CC2)cc1`
Result string: Not satisfied

Query string: Is the recorded value of pKi equal to or greater than 6 for this compound? `COc1cccc(CCC2CCN(CCc3cccc(OC)c3)CC2)c1`
Result string: Satisfied

Query string: Is the recorded value of pKi equal to or greater than 6 for this compound? `COc1cccc(CN2CCC(CCc3ccccc3)CC2)c1`
Result string: Not satisfied

* * *

- system.tested: VMAT2 (Rattus norvegicus)
- Construct: conducted using isolated synaptic vesicle preparations; from tissue; host or cells: rat striatum, isolated synaptic vesicles
- method.notes: [3H]Dihydrotetrabenazine ([3H]DTBZ) binding assay, vesicular preparation
- condition.details: rat brain synaptic vesicles, 3 nM [3H]DTBZ; read-out: Inhibition of [3H]DTBZ binding (Ki) VMAT2
property.measured: Ki (µM)
Numbers only, in µM.

Consider the worked cases shown below.
Fc1ccc(CCN2CCC(CCc3ccc(F)cc3F)CC2)cc1 [Compound 35] = 1.45
COc1cccc(CCN2CCC(CCc3ccc(F)cc3F)CC2)c1 [Compound 32] = 0.27
COc1cc(OC)c(OC)cc1CCC1CCN(CCc2ccccc2)CC1 [Compound 9] = 0.38
COc1ccc(CCN2CCC(CCc3ccccc3OC)CC2)cc1 [Compound 27] = 0.5

List reported Ki for each of these compounds:
1. Fc1ccc(CCC2CCN(CCc3ccccc3)CC2)c(F)c1 [Compound 30]
2. COc1ccccc1CCN1CCC(Cc2ccccc2)CC1 [Compound 5]
3. COc1ccc(CCC2CCN(CCc3ccc(F)cc3)CC2)cc1 [Compound 25]
4. COc1ccc(CCN2CCC(CCc3ccc(OC)cc3F)CC2)cc1 [Compound 39]

Result string:
1. 0.53
2. 2.76
3. 0.47
4. 1.61

Query string: Please provide the recorded Ki for c1ccc(CCN2CCCN(CCc3ccccc3)CC2)cc1 [Compound 65] , tested on VMAT2 (Rattus norvegicus).
Result string: 3.17

Entry source: patent US20170226072A1
